From: PubChem BioAssay AID1159580

Test: chemical genetic growth profiling, strain panel (AID 1159580);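 note: tested at 20 µM; growth read once vehicle control cultures reached saturation at 30 °C; 1 = growth at the plate median or of vehicle wells; lower values mean less growth of the strain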
Conditions: S. cerevisiae deletion strains, growth OD, locus YKL190W, strain CNB1, stronger effect = lower value
Out of some 5,500 compounds screened, about 2,000 (36%) were called active. Inconclusive results (about 18%) are left out. This is one part of the list.
In this section we review reported normalized growth values for a set of compounds.
Answer as a number with no unit attached.

For orientation, consider the following solved cases.
>>> df
                                   compound  readout_value
0                        CCCSP(=O)(OCC)SCCC              1
1                       Cc1ccc(CSC(=N)N)cc1           1.01
2  CN1CCc2cccc3c2C1Cc1ccc(O)c(O)c1-3 (configuration not stated)           1.01
3  COc1cc2c3cc1Oc1cc(ccc1O)OC1c4c(cc(OC)c(O)c4Oc4ccc(cc4)CC3N(C)CC2)CCN1C (configuration not stated)          0.998
4                Cc1ccc(C(C)C)cc2c(C)ccc1-2          0.986

Ask: Recorded normalized growth of CN=C1CN(O)C(c2ccccc2)=c2cc(Cl)ccc2=N1 , please.
Result: 0.979

Ask: Request: OCC(S)CS (configuration not stated)
Result: 0.985

###

Assay: chemical genetic growth profiling, strain panel (AID 1159580);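 note: tested at 20 µM; growth read once vehicle control cultures reached saturation at 30 °C; 1 = growth at the plate median or of vehicle wells; lower values mean less growth of the strain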
Details: S. cerevisiae deletion strains, growth OD, locus YER111C, strain swi4, stronger effect = lower value
Hit rate of the full screen: of about 5,500 compounds, about 2,000 (36%) were called active. Inconclusive results (about 18%) are left out. This is one part of the list.
observed property: normalized growth
Answer as a number with no unit attached.

For orientation, consider the following solved cases.
In [3]: df
Out[3]:
                                   molecule  observed_property  readout_value
0                Cc1ccc(C(C)C)cc2c(C)ccc1-2  normalized growth           1.01
1  CCOC(=O)C(C)(N)Cc1ccc(O)c(O)c1 (stereo not given)  normalized growth          0.968
2  O=C(/C=C/c1ccc(O)c(O)c1)O[C@@H]1C[C@](O)(C(=O)O)C[C@@H](O)[C@H]1O  normalized growth          0.976
3  CC(Cc1ccc(O)c(O)c1)(NN)C(=O)O (stereo not given)  normalized growth           1.01
4  O=C1O[C@@H](CO)[C@H](O)[C@@H](O)[C@@H]1O  normalized growth           1.01
5                    CCCc1cc(OC)c2c(c1)OCO2  normalized growth          0.976
6           C[C@](N)(Cc1ccc(O)c(O)c1)C(=O)O  normalized growth          0.995
7                     OC/C=C/c1ccc(O)c(O)c1  normalized growth           1.01

Ask: Recorded normalized growth of CCOc1ccc2c(c1)C(C)=CC(C)(C)N2 , please.
Result: 0.982

Ask: Request: O=C(NC(Cc1cc(=O)[nH]c2ccccc12)C(=O)O)c1ccc(Cl)cc1 (stereo not given)
Result: 0.999

###

Assay: chemical genetic growth profiling, strain panel (AID 1159580);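 note: tested at 20 µM; growth read once vehicle control cultures reached saturation at 30 °C; 1 = growth at the plate median or of vehicle wells; lower values mean less growth of the strain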
Conditions: S. cerevisiae deletion strains, growth OD, locus YPL051W, strain arl3, stronger effect = lower value
The campaign covered roughly 5,500 compounds. About 2,000 (36%) were called active. Roughly 18% stayed inconclusive and do not appear here. This is one part of the list.
observed property: normalized growth
Answer as a number with no unit attached.

>>> print(df.to_string())
                                   molecule  observed_property  readout_value
0                        O=C(O)CNCP(=O)(O)O  normalized growth           1.02
1          O=C(O)CCC(=O)c1ccc(-c2ccccc2)cc1  normalized growth          0.958
2  CC12CCC3C(CC=C4CC(O)CCC43C)C1CCC2=O (configuration not stated)  normalized growth          0.861

Ask: Recorded normalized growth of CC1(C)O[C@@H]2CC3C4CCC5=CC(=O)C=C[C@]5(C)C4[C@@H](O)C[C@]3(C)[C@]2(C(=O)CO)O1 (some centres not stated) , please.
Result: 1

Ask: Request: O=C(O)CCCCC1SCC2NC(=O)NC21 (configuration not stated)
Result: 1.01

Ask: Request: NC(=O)c1ccc(N)nc1
Result: 0.993

Ask: Request: Cc1ccc(C(C)C)cc2c(C)ccc1-2
Result: 0.984

Ask: Request: C=CC1=C(C)/C(=C/c2[nH]c(Cc3[nH]c(/C=C4\NC(=O)C(C)=C4C=C)c(C)c3CCC(=O)O)c(CCC(=O)O)c2C)NC1=O
Result: 0.969
